Molecular target: Organic anion transporter 3 (Homo sapiens)
Sequence (Q8TCC7 whole entry): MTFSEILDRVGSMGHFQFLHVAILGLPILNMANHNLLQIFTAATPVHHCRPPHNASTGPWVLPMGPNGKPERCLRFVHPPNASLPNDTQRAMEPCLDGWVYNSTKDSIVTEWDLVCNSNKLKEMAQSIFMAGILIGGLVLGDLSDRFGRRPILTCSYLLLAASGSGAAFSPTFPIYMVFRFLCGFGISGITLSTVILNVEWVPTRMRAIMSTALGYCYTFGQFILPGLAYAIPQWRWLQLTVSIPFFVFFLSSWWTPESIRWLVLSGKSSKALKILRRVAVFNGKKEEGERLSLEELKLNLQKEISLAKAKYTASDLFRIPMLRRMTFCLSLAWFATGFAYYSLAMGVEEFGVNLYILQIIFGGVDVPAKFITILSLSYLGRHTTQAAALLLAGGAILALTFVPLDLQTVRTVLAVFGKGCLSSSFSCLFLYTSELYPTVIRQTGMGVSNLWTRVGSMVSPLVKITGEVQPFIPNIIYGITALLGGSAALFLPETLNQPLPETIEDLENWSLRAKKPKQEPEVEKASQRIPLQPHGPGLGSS
Assay: Inhibition of human OAT3 expressed in CHO cells assessed as inhibition of fluorescein uptake at 500 uM over 20 mins relative to untreated-control
Format: ADME, cell-based
Details: cho, 20 min, 500 µM
MEASURED_ENDPOINT: inhibition (INH)

>  <MOLECULE>
Cc1onc(-c2c(Cl)cccc2Cl)c1C(=O)N[C@@H]1C(=O)N2[C@@H]1SC(C)(C)[C@@H]2C(=O)O [DICLOXACILLIN]

>  <OBSERVED_VALUE>
Active

$$$$
>  <MOLECULE>
CO/N=C(\C(=O)N[C@@H]1C(=O)N2C(C(=O)O)=C(CSC(=O)c3ccco3)CS[C@H]12)c1csc(N)n1 [CEFTIOFUR]

>  <OBSERVED_VALUE>
Not Active

$$$$
>  <MOLECULE>
COc1cccc(OC)c1C(=O)N[C@@H]1C(=O)N2[C@@H]1SC(C)(C)[C@@H]2C(=O)O [METHICILLIN]

>  <OBSERVED_VALUE>
Not Active

$$$$
>  <MOLECULE>
CCCN(CCC)S(=O)(=O)c1ccc(C(=O)O)cc1 [PROBENECID]

>  <OBSERVED_VALUE>
Not Active

$$$$

Req: Recorded inhibition (INH) of NC(=O)c1cc[n+](CC2=C(C(=O)O)N3C(=O)[C@@H](NC(=O)[C@@H](c4ccccc4)S(=O)(=O)[O-])[C@H]3SC2)cc1 [CEFSULODIN] , please.
Resp: Not Active

Req: Recorded inhibition (INH) of CC(C)(O/N=C(\C(=O)N[C@@H]1C(=O)N2C(C(=O)[O-])=C(C[n+]3ccccc3)CS[C@H]12)c1csc(N)n1)C(=O)O [CEFTAZIDIME] , please.
Resp: Not Active

Req: Recorded inhibition (INH) of Cc1onc(-c2ccccc2)c1C(=O)N[C@@H]1C(=O)N2[C@@H]1SC(C)(C)[C@@H]2C(=O)O [OXACILLIN] , please.
Resp: Active

Req: Recorded inhibition (INH) of CCOc1ccc2ccccc2c1C(=O)N[C@@H]1C(=O)N2[C@@H]1SC(C)(C)[C@@H]2C(=O)O [NAFCILLIN] , please.
Resp: Not Active

Req: Recorded inhibition (INH) of C[C@H]1[C@H](NC(=O)/C(=N\OC(C)(C)C(=O)O)c2csc(N)n2)C(=O)N1S(=O)(=O)O [AZTREONAM] , please.
Resp: Not Active

Hey, just so you know, these numbers are from ChEMBL document CHEMBL3525990.
